Value source: BigSolDB 2.1

Settings: in 1,4-dioxane, 328.15 K
measurementLabel: solubility (mole fraction)
Answers are plain numbers.

Would you kindly share the measured solubility (mole fraction) for `C=CC(=O)NC(C)(C)CS(=O)(=O)O` ?
0.00268

====

Details: in n-propanol, 325.15 K
measurementLabel: solubility (mole fraction)
Numbers only.

// lookup solubility (mole fraction) for `C=CC(=O)NC(C)(C)CS(=O)(=O)O`
0.0158

====

Conditions: in acetonitrile, 283.15 K
measurementLabel: solubility (mole fraction)
One number for each entry.

Need solubility (mole fraction), item `C=CC(=O)NC(C)(C)CS(=O)(=O)O`
3.11e-05

====

Conditions: in cyclohexane, 318.15 K
measurementLabel: solubility (mole fraction)

# get_value(readout='solubility (mole fraction)', item= `C=CC(=O)NC(C)(C)CS(=O)(=O)O` )
0.000867

====

Conditions: in isobutanol, 308.15 K
measurementLabel: solubility (mole fraction)
Answers are plain numbers.

I am curious: what solubility (mole fraction) value has been reported for `C=CC(=O)NC(C)(C)CS(=O)(=O)O` ?
0.00596

====

Conditions: in n-propanol, 288.15 K
measurementLabel: solubility (mole fraction)
One number for each entry.

Query (molecule): `C=CC(=O)NC(C)(C)CS(=O)(=O)O` ; field requested: solubility (mole fraction)
0.00463

====

Conditions: in ethanol, 293.15 K
measurementLabel: solubility (mole fraction)
One number for each entry.

Name the reported solubility (mole fraction) value associated with the molecule `C=CC(=O)NC(C)(C)CS(=O)(=O)O`
0.00893

====

Settings: in n-butanol, 323.15 K
measurementLabel: solubility (mole fraction)
One number for each entry.

Given `C=CC(=O)NC(C)(C)CS(=O)(=O)O` , state its recorded solubility (mole fraction).
0.0133

====

Settings: in ethylene glycol, 318.15 K
measurementLabel: solubility (mole fraction)

Entry `C=CC(=O)NC(C)(C)CS(=O)(=O)O` : reported solubility (mole fraction) = ?
0.00583

====

Conditions: in cyclohexane, 298.15 K
measurementLabel: solubility (mole fraction)
Answers are plain numbers.

Could you share which solubility (mole fraction) value was measured for `C=CC(=O)NC(C)(C)CS(=O)(=O)O` ?
0.000139

====

Conditions: in acetonitrile, 318.15 K
measurementLabel: solubility (mole fraction)
Give bare numbers.

If you can, please state the reported solubility (mole fraction) value of `C=CC(=O)NC(C)(C)CS(=O)(=O)O` .
0.00107

====

Settings: in ethanol, 283.15 K
measurementLabel: solubility (mole fraction)
Numbers only.

Look at this molecule and give its reported solubility (mole fraction). `C=CC(=O)NC(C)(C)CS(=O)(=O)O`
0.00721

====

Conditions: in acetone, 303.15 K
measurementLabel: solubility (mole fraction)
Numbers only.

Dear colleague, I am looking for the recorded solubility (mole fraction) of the following compound: `C=CC(=O)NC(C)(C)CS(=O)(=O)O`
0.0107

====

Conditions: in acetone, 313.15 K
measurementLabel: solubility (mole fraction)

Suppose we examine the molecule `C=CC(=O)NC(C)(C)CS(=O)(=O)O` ; what solubility (mole fraction) value has been reported?
0.0148

====

Details: in acetone, 298.15 K
measurementLabel: solubility (mole fraction)
Numbers only.

Which solubility (mole fraction) is reported for this compound? `C=CC(=O)NC(C)(C)CS(=O)(=O)O`
0.00921

====

Conditions: in n-heptanol, 313.15 K
measurementLabel: solubility (mole fraction)

May I ask what solubility (mole fraction) has been recorded for `C=CC(=O)NC(C)(C)CS(=O)(=O)O` ?
0.00824
